Target: T1, BsaWI R259A&W262A (UniProt Q6UQ65 1-272, R259A;W262A)
T1 sequence: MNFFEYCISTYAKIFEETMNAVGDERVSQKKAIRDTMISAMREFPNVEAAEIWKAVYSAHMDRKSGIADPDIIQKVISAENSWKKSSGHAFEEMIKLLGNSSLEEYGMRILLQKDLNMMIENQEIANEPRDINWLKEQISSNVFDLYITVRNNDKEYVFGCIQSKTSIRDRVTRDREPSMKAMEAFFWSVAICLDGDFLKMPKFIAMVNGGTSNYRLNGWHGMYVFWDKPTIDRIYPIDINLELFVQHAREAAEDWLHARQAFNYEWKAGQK
Assay: EMSA; 5 mM Ca2+; EMSA: 40 mM Tris-acetate pH 8.3, 0.1 mg/ml BSA, 10% glycerol, 5 mM CaCl2 or 0.1 mM EDTA, 1 nM DNA, room temperature, 15 min
Settings: protein: recombinant; chain copies: 2; label: 33P; blunt
test-readout: Kd (nM)
Hi! Could you send only the number? It should be in nM, unit omitted.

Bench note: what Kd did SP (dsDNA) DNA 1: GCCTTTCGGTTTACCGGTGTCATTCCGCTG DNA 2: CAGCGGAATGACACCGGTAAACCGAAAGGC show?
2.6
